Reported values of pIC50 for individual entries
Target: UniProt Q13574
Assay: biochemical
Assay type: biochemical
Conditions: liposome (LIPGLO) assay; read-out: DGKζ LIPGLO IC50
pIC50: −log10 of the molar value.

| CHEMICAL SMILES | pIC50 |
| --- | --- |
| Cn1c(=O)cc(N2CCC(Oc3ccc(C(C)(C)C)nn3)CC2)c2nc(C#N)ccc21 | 5.77 |
| COc1ccc2c(n1)c(N1CCC(Oc3ccc(OC(F)(F)F)cc3)CC1)c(C#N)c(=O)n2C | 5.47 |
| Cc1cc(F)cc(OC2CCN(c3c([N+](=O)[O-])c(=O)n(C)c4ccc(F)cc34)CC2)c1 | 4.00 |
| Cn1c(=O)cc(N2CCC(Oc3ccc(C4CCCCC4)cc3)CC2)c2nc(C#N)ccc21 | 4.42 |

====

Target: human DGKζ (Homo sapiens (Human), UniProt Q13574)
Sequence (Q13574 whole entry, looked up): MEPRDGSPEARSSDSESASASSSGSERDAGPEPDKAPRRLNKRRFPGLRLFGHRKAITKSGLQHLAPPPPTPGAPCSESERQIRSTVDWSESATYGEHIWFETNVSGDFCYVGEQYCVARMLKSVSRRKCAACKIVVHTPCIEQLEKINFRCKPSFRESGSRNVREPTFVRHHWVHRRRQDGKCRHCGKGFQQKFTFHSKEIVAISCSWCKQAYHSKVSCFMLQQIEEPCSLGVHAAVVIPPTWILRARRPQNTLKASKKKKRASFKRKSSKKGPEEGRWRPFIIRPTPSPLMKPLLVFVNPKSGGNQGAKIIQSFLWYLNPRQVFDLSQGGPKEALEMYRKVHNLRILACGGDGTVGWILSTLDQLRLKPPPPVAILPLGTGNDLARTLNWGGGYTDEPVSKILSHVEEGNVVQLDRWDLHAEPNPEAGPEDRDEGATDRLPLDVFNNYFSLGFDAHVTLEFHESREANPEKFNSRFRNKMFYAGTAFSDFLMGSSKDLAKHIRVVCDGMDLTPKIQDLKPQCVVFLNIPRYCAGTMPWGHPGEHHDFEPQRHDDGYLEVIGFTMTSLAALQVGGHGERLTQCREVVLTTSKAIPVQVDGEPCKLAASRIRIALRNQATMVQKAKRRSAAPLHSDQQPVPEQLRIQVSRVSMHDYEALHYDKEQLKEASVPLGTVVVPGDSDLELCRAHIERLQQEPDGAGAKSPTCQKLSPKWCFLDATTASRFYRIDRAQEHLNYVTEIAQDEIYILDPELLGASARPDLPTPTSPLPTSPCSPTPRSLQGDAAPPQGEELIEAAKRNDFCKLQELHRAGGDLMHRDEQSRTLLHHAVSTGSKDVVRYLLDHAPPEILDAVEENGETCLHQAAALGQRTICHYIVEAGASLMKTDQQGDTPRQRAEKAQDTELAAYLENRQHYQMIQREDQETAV
Test: biochemical
Assay type: biochemical
Conditions: liposome (LIPGLO) assay; read-out: DGKζ LIPGLO IC50
ENDPOINT LABEL: IC50

| COMPOUND | ENDPOINT LABEL | RESULT |
| --- | --- | --- |
| CC[C@@H]1CN(c2cc(=O)n(C)c3ccc(C#N)nc23)CC[C@H]1Oc1cccc(OC(F)(F)F)c1 (single isomer, unassigned) [Example 162] | IC50 | 1.1 µM |
| CC(C)c1ccc(O[C@@H]2CCN(c3cc(=O)n(C)c4ccc(C#N)nc34)C[C@H]2C)cc1 (single isomer, unassigned) [Example 96] | IC50 | 20 µM |
| Cn1c(=O)c(C#N)c(N2CCC(Oc3ccc(C#N)c(Cl)c3)CC2)c2nc(Cl)ccc21 [Example 38] | IC50 | 9 µM |
| CCC(C)(C)c1ccc(O[C@@H]2CCN(c3cc(=O)n(C)c4ccc(C#N)nc34)C[C@H]2C)cc1 (single isomer, unassigned) [Example 83] | IC50 | 5.8 µM |
| Cc1cccc(OC2CCN(c3c(C#N)c(=O)n(C)c4ccc(Cl)nc34)CC2)c1 [Example 22] | IC50 | 5.7 µM |
| C[C@@H]1CN(c2cc(=O)n(C)c3ccc(C#N)nc23)CC[C@H]1Oc1c(F)cc(F)cc1F [Example 131] | IC50 | ≥ 250 µM |
| CC(C)c1cccc(O[C@@H]2CCN(c3cc(=O)n(C)c4ccc(C#N)nc34)C[C@H]2C)c1 [Example 122] | IC50 | 28 µM |

====

System: human venous whole blood, CD8 positive population (pERK)
Test: DGK human whole blood pERK assay
Assay type: cell-based
Details: Homo sapiens, CD8 positive, read-out: DGK HWB, human whole blood pERK
pEC50: −log10 of the molar value.
Classification field: t = pEC50 at or over 6; f = pEC50 under 6.

| COMPOUND | CLASS NAME |
| --- | --- |
| CCO[C@H]1CN(c2cc(=O)n(C)c3ccc(C#N)nc23)CC[C@@H]1Oc1ccc(C(F)(F)F)cn1 (relative stereo) | t |
| CC[C@@H]1CN(c2nc(=O)n(C)c3ccc(C#N)nc23)[C@H](C)C[C@H]1Oc1ccc(OC(C)C)cn1 | t |
| CC[C@@H]1CN(c2nc(=O)n(C)c3ccc(Cl)nc23)[C@@H](C)C[C@H]1Oc1ccc(OC(C)C)cn1 | f |
| C[C@@H]1CN(c2cc(=O)n(C)c3ccc(C#N)nc23)[C@@H](C)CC1N(C)Cc1ccc(F)cc1 (single isomer, unassigned) | f |

====

Biological target: DGKα (Homo sapiens (Human))
Sequence (P23743 whole entry, looked up): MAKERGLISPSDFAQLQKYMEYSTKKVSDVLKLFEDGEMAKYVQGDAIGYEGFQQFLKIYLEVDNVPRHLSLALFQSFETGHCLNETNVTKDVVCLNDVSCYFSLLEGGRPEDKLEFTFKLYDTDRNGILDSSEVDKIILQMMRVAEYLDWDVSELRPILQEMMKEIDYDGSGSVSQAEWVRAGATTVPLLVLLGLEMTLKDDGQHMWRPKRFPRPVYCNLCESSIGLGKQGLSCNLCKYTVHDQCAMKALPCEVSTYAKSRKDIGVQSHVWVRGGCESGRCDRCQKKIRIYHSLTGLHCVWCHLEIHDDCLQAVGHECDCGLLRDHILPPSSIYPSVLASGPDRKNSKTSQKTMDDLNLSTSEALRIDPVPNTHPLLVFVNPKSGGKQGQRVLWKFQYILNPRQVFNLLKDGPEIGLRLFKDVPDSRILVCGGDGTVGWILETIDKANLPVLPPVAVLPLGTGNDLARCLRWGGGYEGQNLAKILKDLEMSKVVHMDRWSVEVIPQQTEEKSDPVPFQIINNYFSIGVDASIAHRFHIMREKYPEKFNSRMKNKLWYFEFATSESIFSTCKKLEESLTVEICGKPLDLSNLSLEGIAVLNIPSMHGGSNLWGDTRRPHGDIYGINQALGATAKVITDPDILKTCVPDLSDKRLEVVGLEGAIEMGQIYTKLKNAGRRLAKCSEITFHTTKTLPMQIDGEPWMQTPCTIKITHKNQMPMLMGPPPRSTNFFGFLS
Assay: biochemical
Format: biochemical
Conditions: liposome (LIPGLO) assay; read-out: DGKα LIPGLO IC50
pIC50: −log10 of the molar value.
Reported values of pIC50 for individual entries
ENDPOINT LABEL: pIC50

| COMPOUND | ENDPOINT LABEL | NUMERIC RESULT |
| --- | --- | --- |
| CC(C)c1ccc(O[C@@H]2CCN(c3cc(=O)n(C)c4ccc(C#N)nc34)C[C@H]2C)cc1 (single isomer, unassigned) [Example 96] | pIC50 | 7.24 |
| CC(C)c1ccc(O[C@H]2CCN(c3cc(=O)n(C)c4ccc(C#N)nc34)C[C@H]2C)cc1 (single isomer, unassigned) [Example 177] | pIC50 | 6.85 |
| Cc1cc(F)cc(OC2CCN(c3c(C#N)c(=O)n(C)c4ccc(Cl)nc34)CC2)c1 | pIC50 | 5.80 |
| COc1cc(OC2CCN(c3cc(=O)n(C)c4ccc(C#N)nc34)CC2)nc2cc(Cl)ccc12 | pIC50 | 5.66 |
| Cn1c(=O)c(C#N)c(N2CCC(Oc3ccccc3)CC2)c2nc(Cl)ccc21 | pIC50 | 6.82 |
| CCCc1ccc(OC2CCN(c3cc(=O)n(C)c4ccc(C#N)nc34)CC2)cc1 | pIC50 | 6.14 |
| CC[C@@H]1CN(c2cc(=O)n(C)c3ccc(C#N)nc23)CC[C@H]1Oc1cccc(OC(F)(F)F)c1 (single isomer, unassigned) [Example 163] | pIC50 | 7.38 |
| COc1cc(OC2CCN(c3c(C#N)c(=O)n(C)c4ccc(Cl)nc34)CC2)ccc1Cl | pIC50 | 6.46 |
| CC(C)c1ccc(O[C@H]2CCN(c3cc(=O)n(C)c4ccc(C#N)nc34)C[C@H]2C)cc1 (single isomer, unassigned) [Example 178] | pIC50 | 7.21 |
| COc1cc(F)ccc1OC1CCN(c2c(C#N)c(=O)n(C)c3ccc(Cl)nc23)CC1 | pIC50 | 5.80 |
| C[C@@H]1CN(c2cc(=O)n(C)c3ccc(C#N)nc23)CC[C@H]1Oc1ccc(F)cc1C(F)(F)F (single isomer, unassigned) [Example 118] | pIC50 | 6.60 |
| Cc1cccc(O[C@@H]2CCN(c3cc(=O)n(C)c4ccc(C#N)nc34)C[C@H]2C)c1 (single isomer, unassigned) [Example 109] | pIC50 | 6.92 |
| Cc1cccc(O[C@@H]2CCN(c3cc(=O)n(C)c4ccc(C#N)nc34)C[C@H]2C)c1 (single isomer, unassigned) [Example 108] | pIC50 | 6.04 |
| C[C@@H]1CN(c2cc(=O)n(C)c3ccc(C#N)nc23)CC[C@H]1Oc1c(F)cc(F)cc1F | pIC50 | 5.51 |
| Cn1c(=O)cc(N2CCC(Oc3nncc4ccccc34)CC2)c2nc(C#N)ccc21 | pIC50 | 4.57 |
| Cn1c(=O)c(C#N)c(N2CCC(Oc3ccc(F)cc3)CC2)c2nc(Cl)ccc21 | pIC50 | 6.37 |
| C[C@@H]1CN(c2cc(=O)n(C)c3ccc(C#N)nc23)CC[C@@H]1Oc1ccc(OC(C)(C)C)cc1 (single isomer, unassigned) | pIC50 | 6.13 |
| CCC(C)(C)c1ccc(O[C@H]2CCN(c3cc(=O)n(C)c4ccc(C#N)nc34)C[C@H]2C)cc1 (single isomer, unassigned) | pIC50 | 6.43 |
| C[C@@H]1CN(c2cc(=O)n(C)c3ccc(C#N)nc23)CC[C@H]1Oc1cccc(C2CC2)c1 [Example 91] | pIC50 | 7.19 |
| CC[C@@H]1CN(c2cc(=O)n(C)c3ccc(C#N)nc23)CC[C@@H]1Oc1cccc(C(C)(C)C)c1 [Example 167] | pIC50 | 6.92 |
| COc1ccc(OC2CCN(c3c(C#N)c(=O)n(C)c4ccc(Cl)nc34)CC2)cc1 | pIC50 | 6.60 |
| Cn1c(=O)c(C#N)c(N2CCC(Oc3cc(F)ccc3Cl)CC2)c2nc(Cl)ccc21 | pIC50 | 4.18 |
| CCC(C)(C)c1ccc(OC2CCN(c3cc(=O)n(C)c4ccc(C#N)nc34)CC2)cc1 | pIC50 | 6.27 |
| Cn1c(=O)c(C#N)c(N2CCC(Oc3cccc(OC(F)(F)F)c3)CC2)c2nc(Cl)ccc21 | pIC50 | 5.70 |
| CC(C)Oc1ccc(OC2CCN(c3cc(=O)n(C)c4ccc(C#N)nc34)CC2)nc1 | pIC50 | 5.92 |
| CC[C@@H]1CN(c2cc(=O)n(C)c3ccc(C#N)nc23)CC[C@H]1Oc1ccc(OC(C)(C)C)cc1 (single isomer, unassigned) [Example 160] | pIC50 | 5.77 |
| C[C@@H]1CN(c2cc(=O)n(C)c3ccc(C#N)nc23)CC[C@H]1Oc1ccc(OC(C)(C)C)cc1 [Example 85] | pIC50 | 7.10 |
| C[C@@H]1CN(c2cc(=O)n(C)c3ccc(C#N)nc23)CC[C@H]1Oc1cccc2c1OCCCO2 | pIC50 | 7.96 |

====

Target: DGKα (Homo sapiens (Human))
Test: biochemical
Format: biochemical
Conditions: DGKα LIPGLO IC50
Reported values of IC50 for individual entries
ENDPOINT LABEL: IC50 (nM)

| CHEMICAL SMILES | UNIT TAG | NUMERIC RESULT |
| --- | --- | --- |
| Cc1cccc(O[C@@H]2CCN(c3c(C#N)c(=O)n(C)c4ccc(C#N)nc34)C[C@H]2C)c1 | nM | 810 |
| Cc1cccc(O[C@@H]2CCN(c3cc(=O)n(C)c4ccc(C#N)nc34)C[C@H]2C)c1 | nM | 130 |
